# tested_target: mMC4R (Mus musculus, UniProt P56450)
# Sequence (P56450 whole entry): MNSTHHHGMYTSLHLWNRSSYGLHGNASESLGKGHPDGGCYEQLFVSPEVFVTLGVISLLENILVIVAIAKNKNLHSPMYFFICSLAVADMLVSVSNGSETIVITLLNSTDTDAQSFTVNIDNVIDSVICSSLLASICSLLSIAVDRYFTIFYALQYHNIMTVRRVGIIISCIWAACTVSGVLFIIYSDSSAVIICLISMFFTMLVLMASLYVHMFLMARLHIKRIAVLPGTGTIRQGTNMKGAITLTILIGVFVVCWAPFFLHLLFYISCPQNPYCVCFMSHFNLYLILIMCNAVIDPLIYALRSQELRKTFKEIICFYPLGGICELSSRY
# assay_info: AlphaScreen cAMP agonist assay at mMC4R
observation_type: pEC50
By convention, pEC50 is the negative base-10 log of a molar concentration.

Task: Consider the substance Ac-SYSMEHRFWGKPV-NH2 [SKY2-125-5] and give its measured pEC50.
Result: 4.36

###

# tested_target: mMC5R (Mus musculus)
# Sequence (P41149 whole entry): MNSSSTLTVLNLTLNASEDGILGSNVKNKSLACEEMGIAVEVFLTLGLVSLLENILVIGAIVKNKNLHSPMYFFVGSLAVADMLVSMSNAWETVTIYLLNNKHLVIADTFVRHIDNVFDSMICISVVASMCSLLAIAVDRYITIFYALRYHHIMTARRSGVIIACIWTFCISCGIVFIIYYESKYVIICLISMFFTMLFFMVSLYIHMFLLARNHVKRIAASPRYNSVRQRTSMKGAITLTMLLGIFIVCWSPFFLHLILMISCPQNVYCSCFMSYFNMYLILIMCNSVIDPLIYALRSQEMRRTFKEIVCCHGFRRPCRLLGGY
# assay_info: AlphaScreen cAMP agonist assay at mMC5R
observation_type: EC50 (nM)
Please reply with the bare figure in nM and do not write the unit itself.

Task: Quick check: EC50 of Ac-SYSMEHRFWGKPV-NH2 [SKY2-125-5] ?
Result: 2600

Data credit: patent US10899793B2
